# Tested on: EKVX NSCLC
# MEASUREMENT_NOTES: NCI tumour cell line growth inhibition, 48 h
Reported TGI values for a set of compounds

INSERT INTO assay_data (compound, reported_measurement) VALUES
  ('CCOC(=O)c1cnc2n(c1=O)[C@H]1CCCC[C@@H]1N2', '> 100 µM'),
  ('Nc1ccc(C(=O)N/C(=C\c2ccc3c(c2)OCO3)c2nc3ccccc3s2)cc1', '25.9 µM'),
  ('CC(C)(C)N=C1C(=O)C2(C)CCC1C2(C)C (configuration not stated)', '> 100 µM'),
  ('CN1COCN=C1NC#N', '> 100 µM'),
  ('C[C@]12CCC3c4ccc(O)cc4CCC3C1CC[C@@H]2NC(=O)/C=C/c1ccc(O)c(O)c1 (some centres not stated)', '31.2 µM'),
  ('CC(C)(C1=NC(C(C)(C)C)CO1)C1=N[C@@H](C(C)(C)C)CO1 (some centres not stated)', '> 100 µM'),
  ('C[C@@H]1C[C@@H]2OC(=O)[C@]3(C)[C@H]2[C@@H](OC3(C)O)[C@]2(C)C(=O)C=C[C@@H]12 (some centres not stated)', '49.2 µM'),
  ('COc1cccc(C=NC23CC4CC(CC(C4)C2)C3)c1', '> 100 µM');

QUERY: Lookup: TGI / EKVX NSCLC / C#CCn1c(I)cc2c(c1=O)COC(=O)[C@]2(O)CC
RESULT: > 100 µM

QUERY: Short answer please: TGI, EKVX NSCLC, entry CCCCC[C@H]1C/C=C2/C(=O)C=C[C@@H]2C/C=C\CCCC(=O)O1
RESULT: 1.97 µM

QUERY: Missing value: TGI, EKVX NSCLC, entry O=C(NNC(=O)c1ccncc1)C(=O)Nc1cc(Cl)c(Cl)cc1Cl . Fill in?
RESULT: > 100 µM

QUERY: Any idea what TGI came out for C[C@H](CCc1nc(C#N)c(N)o1)[C@H]1CC[C@H]2[C@@H]3CCC4C[C@@H](O)CC[C@]4(C)[C@H]3C[C@@H](O)[C@]12C (some centres not stated) on EKVX NSCLC?
RESULT: 27.8 µM

QUERY: For the record CCOC(=O)c1sc(NC(=O)COc2ccc(/C=C3\CCc4cc(OC)ccc4C3=O)cc2)nc1C , what value of TGI is listed for EKVX NSCLC?
RESULT: 53.3 µM

QUERY: Identify the measured TGI of NCCOCCOCC(=O)O for EKVX NSCLC.
RESULT: > 100 µM

QUERY: Which TGI is reported with EKVX NSCLC for this entry: O=c1cc(-c2ccccc2)oc2cc(OCCCCCCCCCCOc3ccc4c(=O)cc(-c5ccccc5)oc4c3)ccc12 ?
RESULT: > 100 µM

QUERY: Entry Cc1cc(O)c2c(c1)OC1(C)CCC3C(C)(C)CCCC34COC2C14 (configuration not stated) , system EKVX NSCLC: what TGI was measured?
RESULT: 24.8 µM

QUERY: State its TGI on EKVX NSCLC: Cc1cc2ccccc2n2c1nc1ccc(O)cc12
RESULT: > 10 µM

---

# Tested on: OVCAR-5 ovarian
# MEASUREMENT_NOTES: NCI tumour cell line growth inhibition, 48 h
ENDPOINT_LABEL: GI50

INSERT INTO measurements (molecule, endpoint_label, reported_measurement) VALUES
  ('CC(C)(C)OC(=O)NCCCCCCCCCCCCn1c2c(c3ccccc3c1=O)C(=O)c1ccccc1-2', 'GI50', '75.9 µM'),
  ('COc1cccc(C2C(C#N)=C(N)Oc3cc(OCCCCCC[P+](c4ccccc4)(c4ccccc4)c4ccccc4)ccc32)c1 (centres undefined)', 'GI50', '1.35 µM'),
  ('CCCCS(=O)(=O)c1cc(Nc2ccc(O)c3c2C(=O)c2ccccc2C3=O)ccc1C', 'GI50', '> 100 µM');

QUERY: What is its GI50 for OVCAR-5 ovarian? Entry: CN(CCOc1ccc(NS(C)(=O)=O)cc1)CCc1ccc(NS(C)(=O)=O)cc1
RESULT: > 100 µM

QUERY: What value of GI50 on OVCAR-5 ovarian does C[C@]12CCC3c4ccc(O)cc4CCC3C1CC[C@@H]2NC(=O)/C=C/c1ccc(O)c(O)c1 (some centres undefined) have?
RESULT: 18.1 µM

QUERY: Lab note: need GI50 with OVCAR-5 ovarian for entry COc1cc(N)c(Cl)cc1C(=O)N[C@@H]1CCN(CCCOc2ccc(F)cc2)C[C@@H]1OC , please look it up.
RESULT: > 100 µM

QUERY: Entry COc1cc(C2CC(c3ccc(Cl)cc3)=NN2C(C)=O)ccc1Oc1ccnc2cc(Cl)ccc12 (centres undefined) , system OVCAR-5 ovarian: what GI50 was measured?
RESULT: > 100 µM

QUERY: Form: Entry = N.N.N.N.O=S([O-])[O-].[Co+3].[N-]=[N+]=[N-] | System = OVCAR-5 ovarian | GI50 = ____
RESULT: > 100 µM

QUERY: Notebook: pull reported GI50 for OVCAR-5 ovarian, entry COc1ccc(C2=NNC(c3sc(Cl)nc3Cl)C2)cc1 (centres undefined)
RESULT: 9.21 µM

---

# Tested on: COLO 205 colon
# MEASUREMENT_NOTES: NCI tumour cell line growth inhibition, 48 h
# Lookup of reported TGI keyed by entry

Take a look at these entries with their results.
INSERT INTO measurements (compound, reported_measurement) VALUES
  ('CCOc1ccc2cc(-c3nn(CC4CCN(C)CC4)c4ncnc(N)c34)ccc2c1', '26.7 µM'),
  ('Cc1c(C(=O)O)sc2nc[nH]c(=O)c12', '> 100 µM'),
  ('CCOC1=C/C(=N\Nc2ccc([N+](=O)[O-])cc2)CCC1', '51.3 µM'),
  ('COC1CCC(CO)OO1 (configuration not stated)', '> 100 µM'),
  ('NC(=S)c1cccc(C2Nc3ccccc3O2)c1 (configuration not stated)', '> 100 µM'),
  ('COc1ccc(C(=O)c2ccccc2)c(O)c1', '> 100 µM'),
  ('O=C(NNC(=O)c1ccc(Cl)cc1NC(=O)C12CC3CC(CC(C3)C1)C2)c1ccc(Cl)cc1', '27.6 µM'),
  ('C=C1C(=O)OC2C[C@@]3(C)CCCC(=C)C3CC12 (some centres not stated)', '6.85 µM'),
  ('C[C@H](CCc1nc(C#N)c(N)o1)[C@H]1CC[C@H]2[C@@H]3CCC4C[C@@H](O)CC[C@]4(C)[C@H]3C[C@@H](O)[C@]12C (some centres not stated)', '31.2 µM'),
  ('COc1ccc(/C=C(\C#N)c2cc(OC)c(OC)c(OC)c2)cc1', '0.0251 µM');

QUERY: What value of TGI has been reported for the following compound? O=C(O)CCN1C(=S)CSC1=S
RESULT: > 100 µM

QUERY: What value of TGI has been reported for the following compound? CCNC(=O)COc1ccc(Cl)c(C)c1
RESULT: > 100 µM

QUERY: Dear colleague, I am looking for the recorded TGI of the following compound: CN(CCOc1ccc(NS(C)(=O)=O)cc1)CCc1ccc(NS(C)(=O)=O)cc1
RESULT: > 100 µM

QUERY: Look up TGI for this compound: N#C/C(=C/C=C/c1cccc(Cl)c1)S(=O)c1ccccc1 (configuration not stated)
RESULT: 1.31 µM

QUERY: For the compound shown here, N/C(=N\N=C/c1c(O)cc(O)cc1O)NO , give the reported TGI.
RESULT: > 100 µM

QUERY: For the compound shown here, CC(=O)N1CCOC12N=NC(C)(C)O2 (configuration not stated) , give the reported TGI.
RESULT: > 100 µM

QUERY: State the recorded TGI for this entry: CC1(C)Cc2ccccc2C(C)(Cl)C(=O)N1 (configuration not stated)
RESULT: > 10 µM

QUERY: Could you share which TGI value was measured for CN(C)CCN=c1nc2c(c(N)n1-c1ccccc1)c(=S)n(-c1ccccc1)c(=S)n2-c1ccccc1 ?
RESULT: 3.32 µM

QUERY: Data request, read-out TGI, for Cc1noc(-c2ccc(C(=O)O)[nH]2)c1Br
RESULT: > 100 µM

QUERY: Quick one: TGI of S=C(Nc1ccc(-c2nc3ccccc3s2)cc1)Nc1ccc(-c2nc3ccccc3s2)cc1 ?
RESULT: > 100 µM

QUERY: TGI for O=S1(=O)CCC2=CC(C(F)(F)F)=CC(C(F)(F)F)=CN21 ?
RESULT: 1.34 µM

---

# System: HCT-116 colon
# MEASUREMENT_NOTES: NCI tumour cell line growth inhibition, 48 h
ENDPOINT_LABEL: TGI (µM)
Express it in µM; write the number only.

Examples from the recorded data:
INSERT INTO measurements (molecule, reported_measurement) VALUES
  ('O=C(O)C(Cc1ccccc1)N1C(=O)/C(=C/C(Cl)=C/c2ccc([N+](=O)[O-])cc2)SC1=S (stereo not given)', 5.47),
  ('CC(C)(C)OC(=O)NCC(c1c[nH]c2ccccc12)c1c[nH]c2ccccc12', 30.4),
  ('O=C(CCC(NC(=O)OCc1ccccc1)C(=O)OCc1ccccc1)Nc1cccc(OCc2ccccc2)c1 (stereo not given)', 36.4);

# context switch: different molecule, same TGI
QUERY: Quick one: TGI for COC1CCC(OC)C(c2nc3sccn3c2/C=N/N=C(N)N)C1 (stereo not given) ?
RESULT: 37.7
